biological target: Aryl hydrocarbon receptor (Homo sapiens) (UniProt P35869); assay: qHTS assay to identify small molecule that activate the aryl hydrocarbon receptor (AhR) signaling pathway (AID 743085); conditions: HepG2 AhR-luc (HG2L7.5c1), luciferase, 24 h; series mostly up to 70.3 µM; further: nearly all actives have a fitted effect of over 15% in size;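 on activation: HG2L7.5c1 human HepG2 liver cells with stably integrated DRE-driven firefly reporter; on the % scale 0 is the no-effect control and ±100 the full control effect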
Sequence (P35869 whole entry, looked up): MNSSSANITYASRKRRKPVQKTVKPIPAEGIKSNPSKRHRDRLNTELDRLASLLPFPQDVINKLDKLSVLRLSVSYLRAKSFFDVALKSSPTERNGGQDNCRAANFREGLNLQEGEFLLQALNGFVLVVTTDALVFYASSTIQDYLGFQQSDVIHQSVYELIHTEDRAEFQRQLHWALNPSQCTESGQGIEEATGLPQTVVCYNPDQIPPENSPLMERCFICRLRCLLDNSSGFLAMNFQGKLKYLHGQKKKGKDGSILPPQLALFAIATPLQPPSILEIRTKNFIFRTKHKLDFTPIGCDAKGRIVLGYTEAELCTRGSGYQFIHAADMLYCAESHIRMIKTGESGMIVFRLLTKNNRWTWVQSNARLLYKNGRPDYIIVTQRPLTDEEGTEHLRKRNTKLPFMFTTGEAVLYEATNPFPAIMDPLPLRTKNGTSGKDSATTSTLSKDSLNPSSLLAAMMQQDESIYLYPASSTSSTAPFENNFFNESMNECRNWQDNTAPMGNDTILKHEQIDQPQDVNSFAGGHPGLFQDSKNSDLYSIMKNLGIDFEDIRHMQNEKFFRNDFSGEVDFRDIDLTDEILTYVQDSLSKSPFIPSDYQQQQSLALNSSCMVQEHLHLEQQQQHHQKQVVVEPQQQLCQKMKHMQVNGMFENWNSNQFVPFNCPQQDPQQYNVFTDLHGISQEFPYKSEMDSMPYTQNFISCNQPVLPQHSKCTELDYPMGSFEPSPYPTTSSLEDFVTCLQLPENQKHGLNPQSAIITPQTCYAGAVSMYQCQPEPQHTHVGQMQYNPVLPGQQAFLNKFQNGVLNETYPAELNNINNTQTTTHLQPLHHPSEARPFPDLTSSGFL
Records with an inconclusive call do not appear. The source made the active and inactive calls. The call rests on the fitted dose curve; in most records, active means well fitted activation curve with a large enough effect in the repeat runs; inconclusive means weak or mixed curves; inactive means no such curve, though single readings can be large or run the other way.
Classes used: YES = active, NO = inactive

> print(dat)
                                    molecule  class.label
 1                      O=c1cc(O)c(Cl)c[nH]1           NO
 2                     C=C[C@@H](C)CCC=C(C)C           NO
 3            C[CH2][Ge]([Cl])([CH2]C)[CH2]C           NO
 4  CC1=NN(c2ccc(S(=O)(=O)O)cc2)C(=O)C1N=Nc1ccccc1 (centres undefined)          YES
 5                       O=C(O)/C=C/c1ccccc1           NO
 6             Nc1ccc(S(=O)(=O)Nc2ccccn2)cc1           NO
 7              CCOc1ccc(NC(=O)OC(C)C)cc1OCC           NO
 8  CC(C)(c1ccc(Oc2ccc3c(c2)C(=O)OC3=O)cc1)c1ccc(Oc2ccc3c(c2)C(=O)OC3=O)cc1           NO
 9      CCCCCCCCCOCC1CO1 (centres undefined)           NO
10            CN(C1CCCCC1)S(=O)(=O)c1ccccc1N           NO
11                       Oc1ccccc1Cc1ccccc1O           NO
12                            CC(C)c1ccccc1O           NO
13                    CCCOC(=O)CCCCC(=O)OCCC           NO
14          CCNC(=O)NCCCOc1cccc(CN2CCCCC2)c1           NO

* * *

Test: qHTS assay to identify small molecule antagonists of the farnesoid-X-receptor (FXR) signaling pathway - cell viability counter screen (AID 743221); further: on the % scale 0 is the no-effect control and ±100 the full control effect; nearly all actives have a fitted effect of over 50% in size
Details: FXR-bla HEK293T viability, CellTiter-Glo luminescence, 16 h; series mostly up to 62.6 µM
From the text: National Center for Advancing Translational Sciences [NCATS] NIH Chemical Genomics Center [NCGC] U.S. Environmental Protection Agency [EPA] National Institutes of Environmental Health Sciences [NIEHS] National Toxicology Program [NTP] U.S. Food and Drug Administration [FDA] The farnesoid-X-receptor (FXR), a nuclear hormone receptor, is highly expressed in liver, intestine, kidney and adrenal cortex. Natural ligands of FXR are the bile acids (Cholic acid, Chenodeoxy cholic acid etc). […]
Results filed as inconclusive are left out. Calls of active or inactive are those of the source. Calls come from the whole dose curve; as a rule, active = well fitted cell-killing curve with a large enough effect in the repeat runs (not every such curve was filed as active); inconclusive = weak or mixed curves, or effect the other way; inactive = no such curve, though single readings can be large or run the other way.
EXPERIMENTAL_READOUT: activity change, negative = cytotoxicity

> print(dat)
                                   molecule                      experimental.readout                 measured.value
1  Cc1oc(=O)oc1CN1CCN(c2cc3c(cc2F)c(=O)c(C(=O)O)c2n3C(C)S2)CC1 (stereo unspecified)  activity change, negative = cytotoxicity                       inactive
2                       CCN(CCO)c1cccc(C)c1  activity change, negative = cytotoxicity                       inactive
3  CCCCCN(CCCOC)C(=O)C(CCC(=O)O)NC(=O)c1ccc(Cl)c(Cl)c1 (stereo unspecified)  activity change, negative = cytotoxicity                       inactive
4  O=C(CN1CCN(Cc2ccc3c(c2)OCO3)CC1)N1c2ccccc2Sc2ccccc21  activity change, negative = cytotoxicity                       inactive
5                       CCCCCCCCCCCCOC(C)=O  activity change, negative = cytotoxicity                       inactive
6                            C=CCCCCCCCCCCC  activity change, negative = cytotoxicity  11.4% [at 5.95 µM] (inactive)

* * *

assay: qHTS assay to identify small molecule antagonists of the estrogen receptor alpha (ER-alpha) signaling pathway - cell viability counter screen (AID 743074); conditions: ERalpha-bla HEK293 viability, CellTiter-Glo luminescence, 18 h; series mostly up to 69.4 µM;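 further: HEK293 cells carrying ER-alpha-UAS-bla reporter stimulated with 17beta-estradiol; on the % scale 0 is the no-effect control and ±100 the full control effect; nearly all actives have a fitted effect of over 45% in size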
Records with an inconclusive call do not appear. Calls of active or inactive are those of the source. Calls come from the whole dose curve.
EXPERIMENTAL_READOUT: outcome

> print(dat)
                                    compound  measured.value
 1        NS(=O)(=O)c1ccc(Cl)c(S(N)(=O)=O)c1        inactive
 2                        CCN(CCC#N)c1ccccc1        inactive
 3  C1CCN2C[C@@H]3C[C@@H](CN4CCCC[C@@H]34)[C@H]2C1        inactive
 4         O=C(O)C(=O)Nc1cccc(-c2nn[nH]n2)c1        inactive
 5                               CNCc1ccccc1        inactive
 6                     CC(C)(C)c1ccc(C=O)cc1        inactive
 7                      O=c1cc(O)c(Cl)c[nH]1        inactive
 8  CC(C)COC(=O)CC(C(=O)OCC(C)C)S(=O)(=O)O (stereo not drawn)        inactive
 9                             CCCCCCCCCCCCC        inactive
10                              COCCOCCOCCOC        inactive
11  CN[C@@H]1[C@H](O)[C@H](NC)[C@H]2O[C@@]3(O)C(=O)C[C@@H](C)O[C@H]3O[C@@H]2[C@H]1O        inactive
12  CC(=O)N(CC(O)CO)c1c(I)c(C(=O)NCC(O)CO)c(I)c(C(=O)NCC(O)CO)c1I (stereo not drawn)        inactive
13  CC1(N)CCC(C(C)(C)N)CC1 (stereo not drawn)        inactive

* * *

test: qHTS assay to identify small molecule agonists of the hypoxia (HIF-1) signaling pathway - cell viability counter screen (AID 1224844); conditions: HRE-bla ME-180 viability, CellTiter-Glo luminescence, 17 h; series mostly up to 76.8 µM; further: on the % scale 0 is the no-effect control and ±100 the full control effect; nearly all actives have a fitted effect of over 50% in size
Inconclusive results are not listed. Calls of active or inactive are those of the source. The call rests on the fitted dose curve.
EXPERIMENTAL_READOUT: activity change, negative = cytotoxicity

> print(dat)
                                   compound                      experimental.readout                 measured.value
1  Cc1ncc([N+](=O)[O-])n1CC(O)CCl (configuration not stated)  activity change, negative = cytotoxicity                       inactive
2              CC(C)COC(=O)CCCCC(=O)OCC(C)C  activity change, negative = cytotoxicity                       inactive
3  Nc1c(NC/C=C\COc2cc(CN3CCCCC3)ccn2)c(=O)c1=O  activity change, negative = cytotoxicity  1.18% [at 15.8 µM] (inactive)
4                      CCCCOC(=O)C(=O)OCCCC  activity change, negative = cytotoxicity                       inactive
5        NS(=O)(=O)c1ccc(Cl)c(S(N)(=O)=O)c1  activity change, negative = cytotoxicity                       inactive
6  Cc1ccccc1C(=O)N1CC/C(=N\OS(=O)(=O)O)c2ccc(Cl)cc21  activity change, negative = cytotoxicity                       inactive
7                           CC(C)=CC(C)(C)C  activity change, negative = cytotoxicity                       inactive

* * *

molecular target: Nuclear receptor subfamily 1 group I member 2 (Rattus norvegicus) (UniProt Q9R1A7); assay: Rat pregnane X receptor (rPXR) activation by small molecules, qHTS assay (AID 1346983); details: rPXR luciferase reporter cells, One-Glo luminescence, 24 h; stronger effect = higher value; further: on the % scale 0 is the no-effect control and ±100 the full control effect; nearly all actives have a fitted effect of over 20% in size
Sequence (Q9R1A7 whole entry, looked up): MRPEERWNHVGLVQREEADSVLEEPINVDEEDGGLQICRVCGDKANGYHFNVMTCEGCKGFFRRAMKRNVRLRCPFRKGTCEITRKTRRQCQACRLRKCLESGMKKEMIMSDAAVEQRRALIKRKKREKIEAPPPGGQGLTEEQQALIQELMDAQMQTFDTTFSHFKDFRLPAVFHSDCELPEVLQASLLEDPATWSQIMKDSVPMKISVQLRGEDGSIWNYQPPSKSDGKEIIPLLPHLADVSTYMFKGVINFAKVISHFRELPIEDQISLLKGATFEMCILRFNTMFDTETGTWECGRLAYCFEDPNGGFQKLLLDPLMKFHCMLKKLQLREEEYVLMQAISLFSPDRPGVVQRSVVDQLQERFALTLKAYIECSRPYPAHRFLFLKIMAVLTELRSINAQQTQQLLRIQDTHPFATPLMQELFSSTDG
Inconclusive results are not listed.
The reader will find reported max activation values listed item by item below.
EXPERIMENTAL_READOUT: max activation (%)

> print(dat)
                                   molecule  quantity.unit  measured.value
1  NS(=O)(=O)c1cc2c(cc1Cl)NC(CC1CCCC1)NS2(=O)=O (stereo unspecified)              %           -1.01
2        Nc1ccc(S(=O)(=O)NC(=O)c2ccccc2)cc1              %           -3.91
3  Cc1oc(=O)oc1CN1CCN(c2cc3c(cc2F)c(=O)c(C(=O)O)c2n3C(C)S2)CC1 (stereo unspecified)              %           -2.98
4       O=c1[nH]c(=O)c2[nH]c(=O)[nH]c2[nH]1              %           -2.16
5           Cc1c(C(C)C)c(=O)n(-c2ccccc2)n1C              %           -1.17
6                    O=C(/C=C/c1ccccc1)NCCO              %          -0.885
